Measured pIC50, S1P transport inhibition (LC-MS/MS of S1P) of individual entries
Biological target: T1, human SPNS2 (human, UniProt Q8IVW8 1-549)
T1 sequence: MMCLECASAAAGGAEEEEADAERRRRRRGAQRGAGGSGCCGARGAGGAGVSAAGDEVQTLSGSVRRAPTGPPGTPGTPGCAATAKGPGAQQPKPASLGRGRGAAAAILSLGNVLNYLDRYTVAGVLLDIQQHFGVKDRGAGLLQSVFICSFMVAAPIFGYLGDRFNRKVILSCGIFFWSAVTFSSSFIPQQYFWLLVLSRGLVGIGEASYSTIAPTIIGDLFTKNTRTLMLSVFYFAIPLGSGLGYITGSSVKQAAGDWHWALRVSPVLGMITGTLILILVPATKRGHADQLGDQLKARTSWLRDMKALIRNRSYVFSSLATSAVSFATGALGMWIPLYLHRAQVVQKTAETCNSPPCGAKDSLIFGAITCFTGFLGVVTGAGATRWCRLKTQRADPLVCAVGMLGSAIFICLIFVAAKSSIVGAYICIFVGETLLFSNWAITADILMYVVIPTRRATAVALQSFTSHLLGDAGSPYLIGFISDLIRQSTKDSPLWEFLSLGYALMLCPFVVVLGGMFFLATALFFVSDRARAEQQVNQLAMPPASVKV
Assay: cell-based or functional assay
measured property: pIC50, S1P transport inhibition (LC-MS/MS of S1P)

* 53-0707E (antibody, IgG2b, V domains shown) VH: EVQLQQSGAELVRPRTSVKLSCKVSGDSITRYYVHFVKQRPGQGLEWIGRIDPEDDTTKYSEKFKKKATLTADASSNTAYLIFSGLTSEDTATYFCSTLTGLDYWGQGVMVTVSS VL: DIQMTQSPPVLSTSVGDRVTLRCKASQNVHSKLDWYQQKHGEAPKLLIYYTHNLQTGIPSRFSGSGSGTDYTLTISSLQPEDVATYYCFQYYSGWTFGGGTKLEMKR | 7.3 pIC50 (M)
* 37-0511F (antibody, IgG2b, V domains shown) VH: EVHLQQSGAALVRPRASVKLSCKVSGDSISRYYVHFVKQRPGQGLEWIGRIDPEDDTTKYSEKFKNRATLTADASSDTASLILSGLTSDDTATYFCSTLTGLDYWGQGVMVTVSS VL: DIQMTQSPPVLSTSVGDRVTLRCKPSQNVHSKLDWYQQKHGEAPKLLIYYTHNLQTGIPSRFSGSGSGTDYTLTISSLQPEDVATYYCFQYYSGWTFGGGTKLEMKR | 7.7 pIC50 (M)
* 49-0703G (antibody, IgG2b, V domains shown) VH: EVQLVESGGGLVQPGRSMKLSCAASGFTFSNHYMAWVRQAPTKGLEWVASISTGGGNTYYRDSVKGRFTISRDNAKSTLYLQMDSLRSEDTATYYCARQDYSNYMGGFAYWGQGTLVTVSS VL: QFVLTQPNSVSTNLGSTVKLSCKRSTGNIGNNYVNWYQQYEGRSPTTMIYRDDERPDGVPDRFSGSIDRSSNSALLTINNVQTEDEADYFCQSFSNGMFIFAGGTQLTVL | 7.4 pIC50 (M)
